Test: Bidirectional transport assay across Caco-2 WT monolayers
Conditions: human, Caco-2, pH 7.4, Papp A-to-B, WT Caco-2; 5 μM substrate; 1 h, 37°C, HBSS pH 7.4; n = 3
readout-kind: Papp A→B at 1 h, 5 μM (×10⁻⁶ cm/s)

INSERT INTO assay_data (smiles, readout_kind, experimental_result) VALUES
  ('CC(C)CN(C[C@@H](O)[C@H](Cc1ccccc1)NC(=O)O[C@H]1CO[C@H]2OCC[C@H]21)S(=O)(=O)c1ccc(N)cc1', 'Papp A→B at 1 h, 5 μM', 2.6);
